Test system: 843782-103-R-J1-PDC complex spheroid viability
Test: Anticancer human tumor 843782-103-R-J1-PDC patient-derived lung adenocarcinoma cell line growth inhibition [RAS]
Conditions: curve of first compound; second compound 0.01 µM
pIC50: −log10 of the molar value.
Result type: pIC50

[I] CC(C)n1nc(-c2ccc3oc(N)nc3c2)c2c(N)ncnc21 + C=CC(=O)N1CCN(c2nc(OCC3CCCN3C)nc3c(F)c(-c4nc(N)cc(C)c4C(F)(F)F)c(Cl)cc23)C(C)C1
[II] C=CC(=O)Nc1cc(Nc2nccc(-c3cn(C)c4ccccc34)n2)c(OC)cc1N(C)CCN(C)C + C=CC(=O)N1CCN(c2nc(OCC3CCCN3C)nc3c(F)c(-c4nc(N)cc(C)c4C(F)(F)F)c(Cl)cc23)C(C)C1
[III] O=C(c1ccc(F)c(F)c1Nc1ccc(I)cc1F)N1CC(O)([C@@H]2CCCCN2)C1 + C=CC(=O)N1CCN(c2nc(OCC3CCCN3C)nc3c(F)c(-c4nc(N)cc(C)c4C(F)(F)F)c(Cl)cc23)C(C)C1
[IV] CCC(CC)c1cc(NC2CCC(N)C2)n2nccc2n1 (stereo unspecified) + C=CC(=O)N1CCN(c2nc(OCC3CCCN3C)nc3c(F)c(-c4nc(N)cc(C)c4C(F)(F)F)c(Cl)cc23)C(C)C1
[V] Nc1ccn(C2OC(CO)C(O)C2(F)F)c(=O)n1 (stereo unspecified) + C=CC(=O)N1CCN(c2nc(OCC3CCCN3C)nc3c(F)c(-c4nc(N)cc(C)c4C(F)(F)F)c(Cl)cc23)C(C)C1
Inquiry: Place the items in sequence of falling pIC50. Give the labels in the order requested.
Reply text: I, V, III, II, IV
(I: 8.04, V: 7.46, III: 6.79, II: 6.45, IV: 5.82)

###

System: 843782-103-R-J1-PDC complex spheroid viability
Assay: Anticancer human tumor 843782-103-R-J1-PDC cell line growth inhibition [RAS];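 further: viability read after seven days of compound exposure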
Conditions: second compound 0.0316 µM; first compound 0.003 µM; stronger effect = lower value
Result type: viability, T/C (%)
Report as a plain number; the unit % is understood.

Study these solved cases before continuing.
>>> reported("CCc1c2c(nc3ccc(O)cc13)-c1cc3c(c(=O)n1C2)COC(=O)[C@]3(O)CC + C=CC(=O)N1CCN(c2nc(OCC3CCCN3C)nc3c(F)c(-c4nc(N)cc(C)c4C(F)(F)F)c(Cl)cc23)C(C)C1")
19.5
>>> reported("CCc1c2c(nc3ccc(O)cc13)-c1cc3c(c(=O)n1C2)COC(=O)[C@]3(O)CC + C#Cc1c(F)ccc2cc(O)cc(-c3ncc4c(N5CC6CCC(C5)N6)nc(OCC56CCCN5CC(F)C6)nc4c3F)c12")
15.3
>>> reported("CC1(C)CCC(Nc2ncc(C(F)(F)F)c(-c3c[nH]c4c(P(C)(C)=O)c(C#N)ccc34)n2)CN1 (centres undefined) + C=CC(=O)N1CCN(c2nc(OCC3CCCN3C)nc3c(F)c(-c4nc(N)cc(C)c4C(F)(F)F)c(Cl)cc23)C(C)C1")
81.2

Value of measured viability, T/C for the entry CC1(C)CCC(Nc2ncc(C(F)(F)F)c(-c3c[nH]c4c(P(C)(C)=O)c(C#N)ccc34)n2)CN1 (centres undefined) + C#Cc1c(F)ccc2cc(O)cc(-c3ncc4c(N5CC6CCC(C5)N6)nc(OCC56CCCN5CC(F)C6)nc4c3F)c12 : 93.6

###

Test system: 843782-103-R-J1-PDC complex spheroid viability
Experiment: Anticancer human tumor 843782-103-R-J1-PDC cell line growth inhibition [RAS];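 further: viability read after seven days of compound exposure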
Settings: second compound 0.00949 µM; first compound 3.16 µM; stronger effect = lower value
Source text: RAS pathway inhibitors in Combinations in Complex Spheroids A high-throughput screen of multi-cell type tumor spheroids was designed to identify active combinations of RAS pathway inhibitors and targeted small molecules. Complex spheroids include a stromal component modeled by human endothelial cells (HUVEC) and fibroblasts modeled by human mesenchymal stem cells (MSCs). […] Compounds. […] If the clinical Cmax for an agent had not been determined, the highest concentration tested was 10 microM. […]
Recorded viability, T/C, one value per entry.
Report as a plain number; the unit % is understood.

>>> reported("CCC(CC)c1cc(NC2CCC(N)C2)n2nccc2n1 (stereo not drawn) + CCn1c(-c2cc(N3CCN(C)CC3)cnc2C(C)OC)c2c3cc(ccc31)-c1csc(n1)CC(NC(=O)C1CC1C)C(=O)N1CCCC(N1)C(=O)OCC(C)(C)C2")
0.17
>>> reported("Cc1nc(N2CCC3(CC2)COC(C)C3N)c(CO)nc1Sc1ccnc(N)c1Cl (stereo not drawn) + CCn1c(-c2cc(N3CCN(C)CC3)cnc2C(C)OC)c2c3cc(ccc31)-c1csc(n1)CC(NC(=O)C1CC1C)C(=O)N1CCCC(N1)C(=O)OCC(C)(C)C2")
15.9

Value of measured viability, T/C for the entry C[C@@H](NC(=O)c1ncnc(N)c1Cl)c1ncc(C(=O)Nc2cc(C(F)(F)F)c(Cl)cn2)s1 + CCn1c(-c2cc(N3CCN(C)CC3)cnc2C(C)OC)c2c3cc(ccc31)-c1csc(n1)CC(NC(=O)C1CC1C)C(=O)N1CCCC(N1)C(=O)OCC(C)(C)C2 : 53.6

###

Tested on: 843782-103-R-J1-PDC complex spheroid viability
Experiment: Anticancer human tumor 843782-103-R-J1-PDC cell line growth inhibition [RAS]; active means viability on the fitted dose curve at most 10% of control; inactive means the rest;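 further: viability read after seven days of compound exposure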
Settings: compound 0.1 µM
Can you answer with just one of these options? active, inactive

>>> class("Nc1ccn(C2OC(CO)C(O)C2(F)F)c(=O)n1 (configuration not stated)")
"active"
>>> class("CC(=O)OC12COC1CC(O)C1(C)C(=O)C(O)C3=C(C)C(OC(=O)C(O)C(NC(=O)OC(C)(C)C)c4ccccc4)CC(O)(C(OC(=O)c4ccccc4)C21)C3(C)C (configuration not stated)")
"active"

Field: next compound
Inquiry: # fetch the recorded call for CC(C)NCC(C(=O)N1CCN(c2ncnc3c2C(C)CC3O)CC1)c1ccc(Cl)cc1 (configuration not stated) here
Reply text: inactive

###

Recorded viability, T/C, one value per entry.
Test system: 843782-103-R-J1-PDC complex spheroid viability
Assay: Anticancer human tumor 843782-103-R-J1-PDC cell line growth inhibition [RAS];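 further: viability read after seven days of compound exposure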
Settings: second compound 1 µM; first compound 1 µM; stronger effect = lower value
Report as a plain number; the unit % is understood.

Study these solved cases before continuing.
>>> reported("C=CC(=O)Nc1cc(Nc2nccc(-c3cn(C)c4ccccc34)n2)c(OC)cc1N(C)CCN(C)C + C#Cc1c(F)ccc2cc(O)cc(-c3ncc4c(N5CC6CCC(C5)N6)nc(OCC56CCCN5CC(F)C6)nc4c3F)c12")
37.6
>>> reported("CC1(O)CCCC1n1c(=O)c(C(F)F)cc2cnc(NC3CCN(S(C)(=O)=O)CC3)nc21 (centres undefined) + C=CC(=O)N1CCN(c2nc(OCC3CCCN3C)nc3c(F)c(-c4nc(N)cc(C)c4C(F)(F)F)c(Cl)cc23)C(C)C1")
25.1
>>> reported("C=CC(=O)N1CCN(c2nc(OCC3CCCN3C)nc3c(F)c(-c4nc(N)cc(C)c4C(F)(F)F)c(Cl)cc23)C(C)C1 (centres undefined) + C#Cc1c(F)ccc2cc(O)cc(-c3ncc4c(N5CC6CCC(C5)N6)nc(OCC56CCCN5CC(F)C6)nc4c3F)c12")
68.5

Value of measured viability, T/C for the entry CC(=O)OC12COC1CC(O)C1(C)C(=O)C(O)C3=C(C)C(OC(=O)C(O)C(NC(=O)OC(C)(C)C)c4ccccc4)CC(O)(C(OC(=O)c4ccccc4)C21)C3(C)C (centres undefined) + C=CC(=O)N1CCN(c2nc(OCC3CCCN3C)nc3c(F)c(-c4nc(N)cc(C)c4C(F)(F)F)c(Cl)cc23)C(C)C1 : 3.62

Value of measured viability, T/C for the entry O=C(c1ccc(F)c(F)c1Nc1ccc(I)cc1F)N1CC(O)([C@@H]2CCCCN2)C1 + C#Cc1c(F)ccc2cc(O)cc(-c3ncc4c(N5CC6CCC(C5)N6)nc(OCC56CCCN5CC(F)C6)nc4c3F)c12 : 19.7

Value of measured viability, T/C for the entry CC(=O)OC12COC1CC(O)C1(C)C(=O)C(O)C3=C(C)C(OC(=O)C(O)C(NC(=O)OC(C)(C)C)c4ccccc4)CC(O)(C(OC(=O)c4ccccc4)C21)C3(C)C (centres undefined) + C#Cc1c(F)ccc2cc(O)cc(-c3ncc4c(N5CC6CCC(C5)N6)nc(OCC56CCCN5CC(F)C6)nc4c3F)c12 : 6.08

Value of measured viability, T/C for the entry CCN1CCN(Cc2ccc(Nc3ncc(F)c(-c4cc(F)c5nc(C)n(C(C)C)c5c4)n3)nc2)CC1 + C=CC(=O)N1CCN(c2nc(OCC3CCCN3C)nc3c(F)c(-c4nc(N)cc(C)c4C(F)(F)F)c(Cl)cc23)C(C)C1 : 47.5

Value of measured viability, T/C for the entry CCC(CC)c1cc(NC2CCC(N)C2)n2nccc2n1 (centres undefined) + C=CC(=O)N1CCN(c2nc(OCC3CCCN3C)nc3c(F)c(-c4nc(N)cc(C)c4C(F)(F)F)c(Cl)cc23)C(C)C1 : 86.1

Value of measured viability, T/C for the entry CC(C)NCC(C(=O)N1CCN(c2ncnc3c2C(C)CC3O)CC1)c1ccc(Cl)cc1 (centres undefined) + C#Cc1c(F)ccc2cc(O)cc(-c3ncc4c(N5CC6CCC(C5)N6)nc(OCC56CCCN5CC(F)C6)nc4c3F)c12 : 48

Hey, just so you know, these numbers are from PubChem BioAssay AID2060883.
